# system name: Tyrosyl-tRNA synthetase, putative (Trypanosoma cruzi (strain CL Brener))
# protocol description: Trypanosoma cruzi tyrosyl tRNA synthetase (TcYRS) _High Tyrosine SOP
# Assay type: functional
# Parameters: scale not given: in the data most compounds retested in dose-response had high values
# reported conditions: 30 µM
Assign Percent Effect to each entry below.
Quick reminder: number only, in %, skip the unit.

(Q) Query: Percent Effect; subject: "CS(=O)(=O)N1CCC(Oc2cnccn2)CC1"
(A) 4.23

(Q) Query: Percent Effect; subject: "CC(C)(O)CN1CCN(C(=O)c2cc(Cl)cc3cccnc23)CC1"
(A) 2.39

(Q) Query: Percent Effect; subject: Cc1cccnc1C(=O)N1CCCCC1c1[nH]ncc1S(C)(=O)=O (configuration not stated)
(A) 7.41

(Q) Query: Percent Effect; subject: Cn1ncc(C(=O)N2CCCC(n3cccn3)C2)c1C1CC1 (configuration not stated)
(A) 2.63

(Q) Query: Percent Effect; subject: N#CCCCS(=O)(=O)N1CCCC1CC(=O)c1cccs1 (configuration not stated)
(A) -0.529

(Q) Query: Percent Effect; subject: "CN(C)c1ccc(C(=O)NCC2(O)CCOCC2)cc1"
(A) 5.82

(Q) Query: Percent Effect; subject: "Cc1noc(C)c1CNC(=O)N1CCN(Cc2cscn2)CC1"
(A) 6.37

(Q) Query: Percent Effect; subject: CNS(=O)(=O)CCCN1CCCC1c1noc(C2CC2)n1 (configuration not stated)
(A) 0.493

(Q) Query: Percent Effect; subject: "CCn1ccnc1CN1CCN(CCOc2cccc(C#N)c2)CC1"
(A) 8.33

(Q) Query: Percent Effect; subject: Cc1nc(C)n(CC2CCCN(CCC(=O)N3CCCCC3)C2)n1 (configuration not stated)
(A) 0

(Q) Query: Percent Effect; subject: "Cc1ccc(F)cc1C(=O)N1C[C@@H](CN2CCOCC2)[C@@H](CO)C1"
(A) 5.85

(Q) Query: Percent Effect; subject: Cn1cc(CN2CCC3(CC(=O)N(c4ccc5c(c4)OCO5)C3)C2)cn1 (configuration not stated)
(A) 4.74

(Q) Query: Percent Effect; subject: "CN1CCN(CC2CC2)C(=O)c2cnc(N3CC[C@@H](O)C3)nc21"
(A) -2.63

(Q) Query: Percent Effect; subject: O=C(Cc1ccccc1)N1CCC2(CC(=O)N(c3ccsc3)C2)C1 (configuration not stated)
(A) 14.8

(Q) Query: Percent Effect; subject: "NC(=O)c1cc(NC(=O)NCCc2cc(F)cc(F)c2)ccc1F"
(A) 5.88

(Q) Query: Percent Effect; subject: "COc1ncc(-c2nccn2CCN(C)C)cn1"
(A) -2.65

(Q) Query: Percent Effect; subject: CCOCC1CN(C(=O)N(C)C)Cc2nn(C)cc21 (configuration not stated)
(A) 1.04

(Q) Query: Percent Effect; subject: "CC(C)NC(=O)c1nnn(-c2cccc(C(F)(F)F)c2)c1N"
(A) 0

(Q) Query: Percent Effect; subject: "O=C(C1CC=CC1)N1CCC2(CC1)CN(Cc1ccccn1)CCO2"
(A) 1.58

(Q) Query: Percent Effect; subject: "CCc1ccc(C(=O)N2CCC(c3nncn3CC)CC2)cc1"
(A) 3.19

(Q) Query: Percent Effect; subject: "C[C@H]1C[C@@H]2CCN(C(=O)c3ccncn3)C[C@H]2O1"
(A) 5.94

(Q) Query: Percent Effect; subject: "CCn1cnnc1CNC(=O)N(C)Cc1ccc(F)c(F)c1"
(A) 7.39

(Q) Query: Percent Effect; subject: CC(C)(C)c1cn2nc(N3CCOC(Cn4cncn4)C3)sc2n1 (configuration not stated)
(A) 3.35

(Q) Query: Percent Effect; subject: CCc1noc(C(C)N(C)CC(=O)Nc2c(C)cccc2C)n1 (configuration not stated)
(A) 4.3

(Q) Query: Percent Effect; subject: Cc1ccc(C(N)c2cccc(S(C)(=O)=O)c2)cc1 (configuration not stated)
(A) 4.74

(Q) Query: Percent Effect; subject: "Cc1ccc(-c2nnc(SCC(=O)O)n2-c2ccc(C)cc2)cc1"
(A) 6.38

(Q) Query: Percent Effect; subject: "O=C(NCCn1ccnc1)N1CCN(c2nccs2)CC1"
(A) 2.94

(Q) Query: Percent Effect; subject: CCOc1ncccc1NC(=O)NCC(O)c1ccccc1OC (configuration not stated)
(A) 3.45

(Q) Query: Percent Effect; subject: Cc1cc(C2CCCN2Cc2cc(=O)n(C)c(=O)n2C)on1 (configuration not stated)
(A) 2.63

(Q) Query: Percent Effect; subject: "CN(C)c1ccc(CC(=O)N[C@@H]2CCNC[C@H]2O)cc1"
(A) 7.53

(Q) Query: Percent Effect; subject: CC1COCCN1Cc1nc(-c2cccc(Br)c2)no1 (configuration not stated)
(A) 0.493

(Q) Query: Percent Effect; subject: CCCC(Nc1c(C#N)c(=O)n(C)c(=O)n1C)c1ccc(F)cc1F (configuration not stated)
(A) 7.39

(Q) Query: Percent Effect; subject: "Cc1[nH]/c(=N\C(=O)c2csc(NCC(C)C)n2)sc1C"
(A) 5.85

(Q) Query: Percent Effect; subject: "CC(=O)N1CCC2(CCN(C(=O)c3ccc(C)c(C(F)(F)F)c3)CC2)C1"
(A) 7.89

(Q) Query: Percent Effect; subject: "Cc1ccccc1-c1noc(CN2CCn3c(nnc3C3CC3)C2)n1"
(A) 0.478

(Q) Query: Percent Effect; subject: "COCC(=O)N1Cc2cnc(Cc3ccc(OC)cc3)nc2C1"
(A) 8.6

(Q) Query: Percent Effect; subject: "CN(C)C1CCN(C(=O)NCc2ccccc2Cn2cncn2)CC1"
(A) 7.94

(Q) Query: Percent Effect; subject: "Fc1cccnc1OC[C@@]12CCO[C@@H]1CCN(CC1CCOCC1)C2"
(A) 6.45

(Q) Query: Percent Effect; subject: "O=C1CC[C@H]2CN(Cc3ccc(Cl)s3)CC[C@H]2N1CCc1c[nH]cn1"
(A) 3.12

(Q) Query: Percent Effect; subject: CCn1ncnc1C1CC(=O)NCc2nc3ccccn3c21 (configuration not stated)
(A) 5.85

(Q) Query: Percent Effect; subject: Cc1cc(CNC2CCCN(c3cccnn3)C2)no1 (configuration not stated)
(A) 5.38

(Q) Query: Percent Effect; subject: "CNC(=O)[C@H]1C[C@@H]2CN(S(=O)(=O)c3ccccc3)C[C@@H]2N1C(C)=O"
(A) 5.38

(Q) Query: Percent Effect; subject: "Cn1cccc1C(=O)NCc1cnc2n1CCN(C(=O)N1CCCC1)C2"
(A) 2.08

(Q) Query: Percent Effect; subject: CN1CCOC(CNC(=O)CCCOc2ccccc2F)C1 (configuration not stated)
(A) 10.1

(Q) Query: Percent Effect; subject: "CCOCCCn1c(NC(=O)c2ccc(C)nc2)nc2ccccc21"
(A) 4.85

(Q) Query: Percent Effect; subject: "Cc1cc(C(=O)N2CCc3nnc(N)cc3C2)c(C)n1C1CC1"
(A) 7.29

(Q) Query: Percent Effect; subject: "O=C(c1ccc(O)cc1)N1CCN(C(=O)c2ccc3c(c2)COC3)CC1"
(A) 4.43
